NCI-H460 lung data, read-out GI50

MOLECULE | GI50
NCC1OC(OC2C(CO)OC(OC3C(O)C(N)CC(N)C3OC3OC(CO)C(O)CC3N)C2O)C(N)C(O)C1OC1OC(CO)C(O)C(O)C1O (centres undefined) | > 50 µg/mL
CCN(CC)C1CCC(Nc2c(C(C)=O)cnc3ccc(-c4ccc(O)c(Cl)c4)cc23)CC1 (centres undefined) | 311 nM

Provide one value: measured GI50 of COc1cc(/C=C/C(=O)N2CCN(C(=O)c3cc(OC)c(OC)c(OC)c3)CC2)ccc1OCCCOc1cc2c(cc1OC)C(=O)N1CCC[C@H]1C=N2
333 nM

Provide one value: measured GI50 of COC1=CC(c2ccc[nH]2)=N/C1=C\c1[nH]c(C)c(C(=O)CCCCC(=O)Oc2ccc3c(c2)CCC2C3CC[C@]3(C)[C@@H](O)CC[C@@H]23)c1C (some centres undefined)
5710 nM

Provide one value: measured GI50 of Cn1cc(C2=C(c3cn(C)c4ccccc34)C(=O)NC2=O)c2ccccc21
1120 nM

Provide one value: measured GI50 of COc1cc(/C=C2\C[C@H]3[C@@H]4CC=C5C[C@@H](O)CC[C@]5(C)[C@H]4CC[C@]3(C)[C@H]2O)ccc1OCCCn1ccnc1
1520 nM

Provide one value: measured GI50 of COc1cc([C@@H]2C[C@H]2c2cc(SC)n[nH]2)cc(OC)c1OC
17700 nM

Provide one value: measured GI50 of CCCCCCCCC(=O)OCC(CS[As](C)C)OC(=O)CCCCCCCC (centres undefined)
21700 nM

Provide one value: measured GI50 of O=S(=O)(/N=c1/scc(-c2ccccc2)n1-c1ccccc1)c1ccc(N2N=C3c4ccccc4CC3C2c2cccs2)cc1 (centres undefined)
95100 nM

Provide one value: measured GI50 of O=C1c2cccc(NCCN=Cc3ccccc3O)c2C(=O)c2c(NCCN=Cc3ccccc3O)cccc21
399 nM
